Target Or Test System: T1, native human ApoC3 (human, UniProt P02656 21-99, biotinylated in the captured-antigen assays (Tables 6 and 8); sites not stated)
T1 construct: also called nhuApoC3; native huApoC3
T1 sequence (P02656 21-99): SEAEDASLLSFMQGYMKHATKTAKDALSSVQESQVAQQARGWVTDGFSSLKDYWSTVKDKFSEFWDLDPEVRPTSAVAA
Assay Protocol: SPR, biotinylated antigen captured on streptavidin chip, IgG as analyte, pH 7.4
Hi there, I'd appreciate the recorded Kd for every entry that follows.
Write the figure, then the unit, nothing else.

Ask | Dear colleague, I am looking for the recorded Kd of the following binder: 29G02 IgG (antibody, V domains shown) VH: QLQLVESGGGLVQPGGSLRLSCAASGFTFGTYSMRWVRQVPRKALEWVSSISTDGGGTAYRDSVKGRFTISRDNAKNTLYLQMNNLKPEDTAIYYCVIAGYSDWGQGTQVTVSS VL: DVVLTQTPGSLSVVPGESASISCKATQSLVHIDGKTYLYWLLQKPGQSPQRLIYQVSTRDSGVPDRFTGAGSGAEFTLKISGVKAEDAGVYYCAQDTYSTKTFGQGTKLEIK
Reply | 0.02 nM

Ask | Can you look up the measured Kd of 29G11 IgG (antibody, V domains shown) VH: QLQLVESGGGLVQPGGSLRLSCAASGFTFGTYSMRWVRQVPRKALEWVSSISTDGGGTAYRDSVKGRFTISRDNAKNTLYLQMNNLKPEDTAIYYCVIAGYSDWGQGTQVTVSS VL: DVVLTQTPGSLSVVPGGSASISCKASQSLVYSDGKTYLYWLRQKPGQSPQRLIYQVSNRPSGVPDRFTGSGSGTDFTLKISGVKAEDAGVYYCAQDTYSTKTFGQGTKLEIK for me?
Reply | 0.05 nM

Ask | Value lookup for Kd; key = 29A05 IgG (antibody, V domains shown) VH: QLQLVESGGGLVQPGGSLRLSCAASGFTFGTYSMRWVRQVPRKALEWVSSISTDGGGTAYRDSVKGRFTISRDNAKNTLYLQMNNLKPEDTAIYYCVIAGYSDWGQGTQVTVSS VL: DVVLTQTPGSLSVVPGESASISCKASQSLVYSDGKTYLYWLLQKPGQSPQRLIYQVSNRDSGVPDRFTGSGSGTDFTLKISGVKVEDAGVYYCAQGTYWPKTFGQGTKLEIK
Reply | 0.13 nM
